# run_description: NCI Yeast Anticancer Drug Screen. Data for the bub3 strain (AID 167)
# run_conditions: S. cerevisiae bub3 mutant strain, at 50.0 µM
This is part of a sample that, as a whole, favours compounds with a hit. Of some 79,000 tested, about 15% had one in any assay. Calls of active or inactive are those of the source. Rule as the data show it: active = growth inhibition above about 70%; inactive = the rest.
Outcome field: choose from active, inactive

Hey, what did the test say about `CC1=NN(c2cccc(Cl)c2)C(=O)C1` ?
inactive

Look up the recorded call for `CCN(CC)CC[n+]1ccc2c(C)c3[nH]c4ccc(O)cc4c3c(C)c2c1` in this test.
inactive

Call for entry `c1ccc2c(c1)Oc1cccc3cccc-2c13` :
inactive

Dear all, I need the recorded test outcome for `CCOC(=O)c1cc([N+](=O)[O-])cc([N+](=O)[O-])c1Sc1ncnc2nc[nH]c12` , thank you.
inactive

Name the outcome recorded for CC(=O)OC1CCC2(C)C(=CCC3C4CCC5(OC6CC(C)CN(C(C)=O)C6C5C)C(C)=C4C(=O)C32)C1 (stereo not given) in the assay.
active

Origin of measurements: PubChem BioAssay (NCI)
